# tgt: Serine/threonine-protein kinase ULK1 (Homo sapiens)
# measurement-protocol: inhibition of human autophagy kinase ULK1 – biochemical, AlphaScreen, primary screen (AID 1259251)
# condition-summary: AlphaScreen Atg13 phosphorylation by ULK1, luminescence; at 5.96 µM
The whole screen tested about 30,000 compounds, of which about 580 (1.9%) were called active. Cut-off read from the data, not from the text of the source: active = inhibition above about 43%; inactive = the rest. Only a selection was taken, and actives are over-represented in it overall.
Pick one: YES (active), NO (inactive)

Example entries and their recorded answers appear below.
[[record]]
molecule = "Cc1cnc(-c2ccc(N3CCOCC3)nc2)nc1NCCN1CCOCC1"
class = "NO"

[[record]]
molecule = "CC(C)NC(=O)c1cccc(Nc2nccc(-c3ccc4nc(C5CC5)nc(N5CCCC5)c4c3)n2)c1"
class = "NO"

[[record]]
molecule = "O=C(Nc1ccc2[nH]ncc2c1)[C@@H]1C[C@H](O)CN1C(=O)Cc1ccc(Br)cc1"
class = "NO"

[[record]]
molecule = "O=C(c1ccc(Nc2nccc(-c3ccc4c(=O)[nH]c(C5CC5)nc4c3)n2)cc1)N1CCCC1"
class = "YES"


input: Field: outcome | Entry: Cc1ccc(CNC(=O)c2cn(C)c3c(=O)n(-c4ccccc4)c(=O)[nH]c23)cc1
output: NO

input: Next record, please: Cn1nccc1-c1cc(F)cc(-c2ccnc(Nc3ccc(-n4cnc(N5CCOCC5)n4)cc3)n2)c1
output: NO

Attribution: PubChem BioAssay AID1259251
